- Study system: pre-formed RCAN1^128-164:calcineurin complex, Q08209
- Sequence (Q08209 1-391 limits assumed, chain 1 of 3): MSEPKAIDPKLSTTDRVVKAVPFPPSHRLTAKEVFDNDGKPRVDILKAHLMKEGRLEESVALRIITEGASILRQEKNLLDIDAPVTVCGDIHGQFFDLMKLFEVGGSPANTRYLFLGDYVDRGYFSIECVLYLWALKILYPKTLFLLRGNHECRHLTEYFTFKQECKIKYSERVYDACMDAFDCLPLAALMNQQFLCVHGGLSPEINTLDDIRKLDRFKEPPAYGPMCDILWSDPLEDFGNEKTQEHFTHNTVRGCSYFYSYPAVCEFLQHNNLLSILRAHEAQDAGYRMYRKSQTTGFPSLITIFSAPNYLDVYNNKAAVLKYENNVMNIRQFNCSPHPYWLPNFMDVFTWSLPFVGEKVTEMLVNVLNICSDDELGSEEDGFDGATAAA
- Sequence (P63098 whole entry, chain 2 of 3, further chain): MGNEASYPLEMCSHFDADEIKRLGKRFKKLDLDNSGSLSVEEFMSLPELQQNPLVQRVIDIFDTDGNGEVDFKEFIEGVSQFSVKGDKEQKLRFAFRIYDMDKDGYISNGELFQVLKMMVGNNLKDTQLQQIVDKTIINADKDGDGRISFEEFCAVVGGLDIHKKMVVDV
- Sequence (P53805 183-219 limits assumed, chain 3 of 3, further chain): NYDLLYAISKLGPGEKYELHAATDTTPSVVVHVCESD
- Assay summary: ITC, peptide titrated into the pre-formed RCAN1^128-164:calcineurin complex
Reported property: Kd (µM)
Write it as a number; the unit µM goes unstated.

Reported Kd for RPKPKIIQTRRPEYT (modifications not checked) [peptide consisting of RCAN1^178-192 that includes the TxxP (SEQ ID NO: 11) site] was 15
